tested on: MCF-7; experiment: Cytotoxic activity, sulforhodamine B assay, MCF-7; assay type: cell-based; conditions: Homo sapiens, MCF7, MCF-7 breast cancer cells, 72 h
Here the recorded IC50 is given for each entry.
observedProperty: IC50 (µM)

# compoundStructure, resultNumber
measured = [
    ("c1ccc(N2CCNCC2)c(C2=NCCS2)c1", 14.7),
    ("c1cc(C2=NCCS2)cc(N2CCNCC2)c1", 15.9),
    ("c1cc(N2CCNCC2)ccc1C1=NCCS1", 19.5),
]

---

Molecular target: 5-HT1A receptor (Rattus norvegicus, UniProt P19327)
Construct: supplemented with 0.1% ascorbate, 5 mM MgCl2 and 80 µg of hippocampal membrane suspension; from tissue; host or cells: rat hippocampus membranes (Sprague Dawley)
Sequence (P19327 1-422): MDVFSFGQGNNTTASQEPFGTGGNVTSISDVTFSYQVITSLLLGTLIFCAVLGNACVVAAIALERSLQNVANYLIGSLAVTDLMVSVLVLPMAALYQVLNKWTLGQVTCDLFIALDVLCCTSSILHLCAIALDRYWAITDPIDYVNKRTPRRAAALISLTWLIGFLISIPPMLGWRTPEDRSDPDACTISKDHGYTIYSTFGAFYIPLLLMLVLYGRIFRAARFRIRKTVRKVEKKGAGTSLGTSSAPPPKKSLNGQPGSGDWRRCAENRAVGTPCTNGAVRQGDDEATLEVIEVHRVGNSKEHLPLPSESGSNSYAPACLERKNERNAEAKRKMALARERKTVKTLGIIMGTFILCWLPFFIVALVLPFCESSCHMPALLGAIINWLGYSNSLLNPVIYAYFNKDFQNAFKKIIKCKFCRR
Assay: Competitive 5-HT1A binding assay, [3H]8-OH-DPAT, hippocampal membranes
Design: species or system Sprague Dawley rats
Settings: 5-HT1A receptor binding affinity; 1 nM [3H]8-OH-DPAT, hippocampal membrane; Cheng–Prusoff; read-out: Ki (µM, 95% CI)
observedProperty: Ki (µM)

# compoundStructure, observedProperty, resultNumber
measured = [
    ("c1cc(N2CCNCC2)ccc1C1=NCCS1", "Ki", 49.5),
    ("c1cc(C2=NCCS2)cc(N2CCNCC2)c1", "Ki", 0.412),
]

---

IC50 values by entry
system: MDA-MB231; test: Cytotoxic activity, sulforhodamine B assay, MDA-MB231; format: cell-based; settings: Homo sapiens, MDA-MB-231, MDA-MB231 breast cancer cells, 72 h
observedProperty: IC50

# compoundStructure, result
data = [
    ("CC(=O)N1CCN(c2ccccc2C2=NCCS2)CC1", "23.3 µM"),
    ("c1ccc(N2CCNCC2)c(C2=NCCS2)c1", "31.4 µM"),
    ("CC(=O)N1CCN(c2ccc(C3=NCCS3)cc2)CC1", "47.1 µM"),
    ("c1cc(C2=NCCS2)cc(N2CCNCC2)c1", "40 µM"),
    ("CC(=O)N1CCN(c2cccc(C3=NCCS3)c2)CC1", "34.6 µM"),
    ("c1cc(N2CCNCC2)ccc1C1=NCCS1", "36.3 µM"),
]

---

Test system: SKBR-3
Test: Cytotoxic activity, sulforhodamine B assay, SKBR-3
Type: cell-based
Details: Homo sapiens, SK-BR-3, SKBR-3 breast cancer cells, 72 h
Protocol: Media, serum and antibiotics for cell culture were from Lonza (Basel, Switzerland). […] Cell survival was assessed by optical density determination at 510 nm using a microplate reader. Figure 2 Effect of novel thiazolinylphenyl-piperazines (2a–c) on BCa cell viability. […] After 72 h, cell viability was assessed by sulforhodamine B assay. […]

# compoundStructure, IC50
records = [
    ("c1cc(N2CCNCC2)ccc1C1=NCCS1", "27.7 µM"),
    ("c1ccc(N2CCNCC2)c(C2=NCCS2)c1", "28.2 µM"),
    ("c1cc(C2=NCCS2)cc(N2CCNCC2)c1", "27.6 µM"),
]
